# assay name: Lipophilicity, log P by microemulsion electrokinetic chromatography
# Format: physicochemical
Collected logP values appear next to each entry.
Enter a number only.

CSc1ccc2c(c1)N(CCC1CCCCN1C)c1ccccc1S2 (centres undefined) :: 4.75
COc1cc(NC(C)CCCN)c2ncccc2c1 (centres undefined) :: 3.8
O=C(c1ccccc1)c1ccc2n1CCC2C(=O)O (centres undefined) :: 1.68

Moving on to another compound below.
So for OCCOCCN1CCN(C(c2ccccc2)c2ccc(Cl)cc2)CC1 (centres undefined) [HYDROXYZINE] , the logged logP turned out to be 4

###

# assay name: Lipophilicity, log P by microemulsion electrokinetic chromatography
# Format: physicochemical
# experimental context: read-out: logP
value type: logP
Enter a number only.

These solved cases illustrate the format of a correct answer.
CC(NC(C)(C)C)C(=O)c1cccc(Cl)c1 (stereo not given) :: 3.76
CN1CCN(C2=Nc3cc(Cl)ccc3Nc3ccccc32)CC1 :: 3.6
C[C@]12CCC(=O)C=C1CC[C@@H]1[C@@H]2[C@@H](O)C[C@@]2(C)[C@H]1CC[C@]2(O)C(=O)CO [HYDROCORTISONE] :: 2.38
CNS(=O)(=O)Cc1ccc2[nH]cc(CCN(C)C)c2c1 :: 1.41

So for O=c1n(CCCN2CCN(c3cccc(Cl)c3)CC2)nc2ccccn12 , the logged logP turned out to be 2.92
